- assay-text: MTT cell viability assay in A549 cells
- Type: cell-based
- applied-conditions: human
Where a SMILES comes first, the peptide text is derived from it. [ ]: non-standard residue; d: D form. The star is where a group is joined. Nle = CCCC[CH](N)C(=O)O; Cbz = O=C(OCc1ccccc1)*
observed-property: CC50 at 24 h

These solved cases illustrate the format of a correct answer.
Item under review: CC(C)C[C@@H](C=O)NC(=O)[C@H](CC(C)C)NC(=O)[C@H](CC(C)C)NC(=O)OCc1ccccc1 [Mg-132] (Cbz-Leu-Leu-Leu-aldehyde) . Reported CC50 at 24 h?
> 200 µM

Item under review: "CCCC[C@@H](C=O)NC(=O)[C@H](CC(C)C)NC(=O)OCc1ccccc1" . Reported CC50 at 24 h?
595 µM

Item under review: "CCCCCCCCCC(=O)N[C@@H](Cc1c[nH]c2ccccc12)C(=O)N[C@H](CC(N)=O)C(=O)N[C@@H](CC(=O)O)C(=O)N[C@@H]1C(=O)NCC(=O)N[C@@H](CCCN)C(=O)N[C@@H](CC(=O)O)C(=O)N[C@H](C)C(=O)N[C@@H](CC(=O)O)C(=O)NCC(=O)N[C@H](CO)C(=O)N[C@@H]([C@H](C)CC(=O)O)C(=O)N[C@@H](CC(=O)c2ccccc2N)C(=O)O[C@@H]1C" . Reported CC50 at 24 h?
> 5000 µM

Continuing:
Item under review: CC(=O)N[C@@H](CC(C)C)C(=O)N[C@@H](CC(C)C)C(=O)N[C@H](C=O)CCCNC(=N)N [leupeptin hemisulfate] . Reported CC50 at 24 h?
> 5000 µM

Item under review: CC(NC(=O)C(Cc1ccccc1)NC(=O)OCc1ccccc1)C(=O)CF (stereo not drawn) . Reported CC50 at 24 h?
> 400 µM

Item under review: CCCCC(C=O)NC(=O)C(CC(C)C)NC(=O)C(CC(C)C)NC(C)=O (stereo not drawn) [Mg-101] (Ac-Leu-Leu-[Nle]-aldehyde; configuration not given here) . Reported CC50 at 24 h?
355 µM

---

Where a SMILES comes first, the peptide text is derived from it. [ ]: non-standard residue; d: D form. Nle = CCCC[CH](N)C(=O)O
Observed IC50 for UniProtKB P07711, reported per entry below.
Sequence (P07711 114-288 limits assumed): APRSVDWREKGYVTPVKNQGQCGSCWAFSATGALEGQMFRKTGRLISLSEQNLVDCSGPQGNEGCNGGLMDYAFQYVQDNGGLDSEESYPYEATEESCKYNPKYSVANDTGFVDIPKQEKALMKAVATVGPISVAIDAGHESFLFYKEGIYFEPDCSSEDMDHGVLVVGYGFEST
Sequence (P07711 292-333 limits assumed): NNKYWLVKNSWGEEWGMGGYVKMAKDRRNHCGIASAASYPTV

These solved cases illustrate the format of a correct answer.
Find the measured IC50: item CC(NC(=O)C(Cc1ccccc1)NC(=O)OCc1ccccc1)C(=O)CF (centres unmarked) , target or system UniProtKB P07711.
54.9 nM

Find the measured IC50: item CC(=O)N[C@@H](CC(C)C)C(=O)N[C@@H](CC(C)C)C(=O)N[C@H](C=O)CCCNC(=N)N [leupeptin hemisulfate] , target or system UniProtKB P07711.
< 8 nM

Find the measured IC50: item "CC1(C)CCC2=C(O1)c1ccccc1C(=O)C2=O" , target or system UniProtKB P07711.
> 100000 nM

Find the measured IC50: item CCCCC(C=O)NC(=O)C(CC(C)C)NC(=O)C(CC(C)C)NC(C)=O (stereo not drawn) [Mg-101] (Ac-Leu-Leu-[Nle]-aldehyde; configuration not given here) , target or system UniProtKB P07711.
< 8 nM

In the following, a different molecule is considered.
Find the measured IC50: item "CCCCCCCCCC(=O)N[C@@H](Cc1c[nH]c2ccccc12)C(=O)N[C@H](CC(N)=O)C(=O)N[C@@H](CC(=O)O)C(=O)N[C@@H]1C(=O)NCC(=O)N[C@@H](CCCN)C(=O)N[C@@H](CC(=O)O)C(=O)N[C@H](C)C(=O)N[C@@H](CC(=O)O)C(=O)NCC(=O)N[C@H](CO)C(=O)N[C@@H]([C@H](C)CC(=O)O)C(=O)N[C@@H](CC(=O)c2ccccc2N)C(=O)O[C@@H]1C" , target or system UniProtKB P07711.
7870 nM

---

- Test system: SARS-CoV-2 pseudovirus
- assay-text: microbe, parasite or virus in culture
- applied-conditions: Severe acute respiratory syndrome-related coronavirus, Huh-7, read-out: EC50, inhibition of SARS-CoV-2 pseudovirus infection
Where a SMILES comes first, the peptide text is derived from it. [ ]: non-standard residue; d: D form. The star is where a group is joined. Nle = CCCC[CH](N)C(=O)O; Cbz = O=C(OCc1ccccc1)*
The molecules listed here are annotated with their log10 of EC50.
Please keep in mind that the values are log10 of EC50 expressed in µM.

These solved cases illustrate the format of a correct answer.
Item under review: CC(=O)N[C@@H](CC(C)C)C(=O)N[C@@H](CC(C)C)C(=O)N[C@H](C=O)CCCNC(=N)N [leupeptin hemisulfate] . Reported log10 of EC50?
1.59

Item under review: CCCCC(C=O)NC(=O)C(CC(C)C)NC(=O)C(CC(C)C)NC(C)=O (stereo not drawn) [Mg-101] (Ac-Leu-Leu-[Nle]-aldehyde; configuration not given here) . Reported log10 of EC50?
0.49

Item under review: CC(NC(=O)C(Cc1ccccc1)NC(=O)OCc1ccccc1)C(=O)CF (stereo not drawn) . Reported log10 of EC50?
-0.15

Item under review: "CC1(C)CCC2=C(O1)c1ccccc1C(=O)C2=O" . Reported log10 of EC50?
0.71

Continuing:
Item under review: "CCCC[C@@H](C=O)NC(=O)[C@H](CC(C)C)NC(=O)OCc1ccccc1" . Reported log10 of EC50?
1.47

Item under review: CC(C)C[C@@H](C=O)NC(=O)[C@H](CC(C)C)NC(=O)[C@H](CC(C)C)NC(=O)OCc1ccccc1 [Mg-132] (Cbz-Leu-Leu-Leu-aldehyde) . Reported log10 of EC50?
-0.67
